Sourced from patent US20040002425A1

Give Chemical injury, Transplanted paddy rice plant for every item shown.
- Test system: Transplanted paddy rice plant
- assay_text: Biological Test 1 (treatment on the 3rd day after transplantation): chemical injury to paddy rice
- Type: in vivo
- Design: scale not given here
- test_parameters: Treatment performed 3 days after transplantation; dose 200 g/ha
Hey, just send me the number, nothing else.

Q: Return reported Chemical injury, Transplanted paddy rice plant. Input compound: O=C1CCCC(S(=O)(=O)c2ccc(O)cc2)=C1C(=O)c1ccc2c(c1Cl)CCS2(=O)=O [B-43]
Ans: 0

Q: Return reported Chemical injury, Transplanted paddy rice plant. Input compound: CC1CC(=O)C(C(=O)c2ccc3c(c2Cl)CCS3(=O)=O)=C(Cl)C1 (stereo not drawn) [B-25]
Ans: 1

Q: Return reported Chemical injury, Transplanted paddy rice plant. Input compound: O=C1CCCC(SCc2ccccc2)=C1C(=O)c1ccc2c(c1Cl)CCS2(=O)=O [B-11]
Ans: 0

Q: Return reported Chemical injury, Transplanted paddy rice plant. Input compound: CSC1=C(C(=O)c2cc(C)c3c(c2C)C(OC(C)C)CCS3(=O)=O)C(=O)CCC1 (stereo not drawn) [B-67]
Ans: 1

Q: Return reported Chemical injury, Transplanted paddy rice plant. Input compound: CSC1=C(C(=O)c2ccc3c(c2Cl)CCS3(=O)=O)C(=O)CCC1 [B-7]
Ans: 0

Q: Return reported Chemical injury, Transplanted paddy rice plant. Input compound: CC(C)SC1=C(C(=O)c2ccc3c(c2Cl)CCS3(=O)=O)C(=O)CCC1 [B-9]
Ans: 0

Q: Return reported Chemical injury, Transplanted paddy rice plant. Input compound: Cc1ccc(SC2=C(C(=O)c3ccc4c(c3Cl)CCS4(=O)=O)C(=O)CCC2)cc1 [B-14]
Ans: 0

Q: Return reported Chemical injury, Transplanted paddy rice plant. Input compound: CO/N=C1\CCS(=O)(=O)c2c(C)cc(C(=O)C3=C(N(C)C)CCCC3=O)c(C)c21 [B-55]
Ans: 0

Q: Return reported Chemical injury, Transplanted paddy rice plant. Input compound: O=C1CCCC(Cl)=C1C(=O)c1ccc2c(c1Cl)CCCS2(=O)=O [B-77]
Ans: 0

Q: Return reported Chemical injury, Transplanted paddy rice plant. Input compound: CON(C)C1=C(C(=O)c2ccc3c(c2Cl)CCS3(=O)=O)C(=O)CCC1 [B-12]
Ans: 1

Q: Return reported Chemical injury, Transplanted paddy rice plant. Input compound: CO/N=C1\CCS(=O)(=O)c2c(C)cc(C(=O)C3=C(Nc4ccc(C)cc4)CCCC3=O)c(C)c21 [B-58]
Ans: 0

Q: Return reported Chemical injury, Transplanted paddy rice plant. Input compound: CO/N=C1\CCS(=O)(=O)c2c(C)cc(C(=O)C3=C(S(=O)(=O)c4ccc(C)cc4)CCCC3=O)c(C)c21 [B-60]
Ans: 0

Q: Return reported Chemical injury, Transplanted paddy rice plant. Input compound: CC1CC(=O)C(C(=O)c2ccc3c(c2Cl)CCS3(=O)=O)=C(Sc2ccccc2)C1 (stereo not drawn) [B-26]
Ans: 0

Q: Return reported Chemical injury, Transplanted paddy rice plant. Input compound: CC(C)(C)SC1=C(C(=O)c2ccc3c(c2Cl)CCS3(=O)=O)C(=O)CCC1 [B-23]
Ans: 0

Q: Return reported Chemical injury, Transplanted paddy rice plant. Input compound: CS(=O)(=O)C1=C(C(=O)c2ccc3c(c2Cl)CCS3(=O)=O)C(=O)CCC1 [B-24]
Ans: 0

Q: Return reported Chemical injury, Transplanted paddy rice plant. Input compound: CCS(=O)(=O)C1=C(C(=O)c2ccc3c(c2Cl)CCS3(=O)=O)C(=O)CCC1 [B-27]
Ans: 0

Q: Return reported Chemical injury, Transplanted paddy rice plant. Input compound: Cc1ccc(S(=O)(=O)C2=C(C(=O)c3ccc4c(c3Cl)CCS4(=O)=O)C(=O)CCC2)cc1 [B-34]
Ans: 0

Q: Return reported Chemical injury, Transplanted paddy rice plant. Input compound: O=C1CCCC(S(=O)(=O)c2ccc(Br)cc2)=C1C(=O)c1ccc2c(c1Cl)CCS2(=O)=O [B-42]
Ans: 0

====

- Tested on: Transplanted paddy rice plant
- assay_text: Biological Test 1 (treatment on the 3rd day after transplantation): chemical injury to paddy rice
- Type: in vivo
- Set-up: scale not given here
- test_parameters: Treatment performed 3 days after transplantation; dose 100 g/ha
result_type: Chemical injury, Transplanted paddy rice plant
Hey, just send me the number, nothing else.

Q: Return reported Chemical injury, Transplanted paddy rice plant. Input compound: CSC1=C(C(=O)c2cc(C)c3c(c2C)C(OC(C)C)CCS3(=O)=O)C(=O)CCC1 (stereo not shown)
Ans: 0

Q: Return reported Chemical injury, Transplanted paddy rice plant. Input compound: "C=CCSC1=C(C(=O)c2ccc3c(c2Cl)CCS3(=O)=O)C(=O)CCC1"
Ans: 0

Q: Return reported Chemical injury, Transplanted paddy rice plant. Input compound: "Cc1cccc(S(=O)(=O)C2=C(C(=O)c3ccc4c(c3Cl)CCS4(=O)=O)C(=O)CCC2)c1"
Ans: 0

Q: Return reported Chemical injury, Transplanted paddy rice plant. Input compound: "Cc1ccc(SC2=C(C(=O)c3ccc4c(c3Cl)CCS4(=O)=O)C(=O)CCC2)cc1"
Ans: 0

Q: Return reported Chemical injury, Transplanted paddy rice plant. Input compound: "CO/N=C1\CCS(=O)(=O)c2c(C)cc(C(=O)C3=C(Nc4ccc(C)cc4)CCCC3=O)c(C)c21"
Ans: 0

Q: Return reported Chemical injury, Transplanted paddy rice plant. Input compound: "CO/N=C1\CCS(=O)(=O)c2ccc(C(=O)C3=C(N(C)OC)CCCC3=O)c(C)c21"
Ans: 0

Q: Return reported Chemical injury, Transplanted paddy rice plant. Input compound: Cc1cc(C(=O)C2=C(Cl)CCCC2=O)c(C)c2c1S(=O)(=O)CCC2OC(C)C (stereo not shown)
Ans: 0

Q: Return reported Chemical injury, Transplanted paddy rice plant. Input compound: "CCS(=O)(=O)C1=C(C(=O)c2ccc3c(c2Cl)CCS3(=O)=O)C(=O)CCC1"
Ans: 0

Q: Return reported Chemical injury, Transplanted paddy rice plant. Input compound: "CO/N=C1\CCS(=O)(=O)c2c(C)cc(C(=O)C3=C(Sc4ccc(C)cc4)CCCC3=O)c(C)c21"
Ans: 0

Q: Return reported Chemical injury, Transplanted paddy rice plant. Input compound: "C=CCS(=O)(=O)C1=C(C(=O)c2ccc3c(c2Cl)CCS3(=O)=O)C(=O)CCC1"
Ans: 0

Q: Return reported Chemical injury, Transplanted paddy rice plant. Input compound: "Cc1c(C(=O)C2=C(Sc3ccc(Cl)cc3)CCCC2=O)ccc2c1C(=O)C(C)(C)CS2(=O)=O"
Ans: 2

Q: Return reported Chemical injury, Transplanted paddy rice plant. Input compound: "CCCCS(=O)(=O)C1=C(C(=O)c2ccc3c(c2Cl)CCS3(=O)=O)C(=O)CCC1"
Ans: 0

Q: Return reported Chemical injury, Transplanted paddy rice plant. Input compound: "O=C1CCCC(Sc2ccccc2)=C1C(=O)c1ccc2c(c1Cl)CCCS2(=O)=O"
Ans: 0

Q: Return reported Chemical injury, Transplanted paddy rice plant. Input compound: "Cc1cc(C(=O)C2=C(Sc3ccccc3)CCCC2=O)c(Cl)c2c1S(=O)(=O)CC2"
Ans: 0

Q: Return reported Chemical injury, Transplanted paddy rice plant. Input compound: "CO/N=C1\CCS(=O)(=O)c2c(C)cc(C(=O)C3=C(Cl)CCCC3=O)c(C)c21"
Ans: 1

Q: Return reported Chemical injury, Transplanted paddy rice plant. Input compound: "CCCSC1=C(C(=O)c2cc(C)c3c(c2C)/C(=N/OC)CCS3(=O)=O)C(=O)CCC1"
Ans: 0

Q: Return reported Chemical injury, Transplanted paddy rice plant. Input compound: "Cc1c(C(=O)C2=C(S(=O)(=O)c3ccc(Cl)cc3)CCCC2=O)ccc2c1C(=O)C(C)(C)CS2(=O)=O"
Ans: 3

Q: Return reported Chemical injury, Transplanted paddy rice plant. Input compound: "O=C1CCCC(S(=O)(=O)c2ccccc2Cl)=C1C(=O)c1ccc2c(c1Cl)CCS2(=O)=O"
Ans: 0

Q: Return reported Chemical injury, Transplanted paddy rice plant. Input compound: "Cc1ccccc1S(=O)(=O)C1=C(C(=O)c2ccc3c(c2Cl)CCS3(=O)=O)C(=O)CCC1"
Ans: 0

====

- System: Transplanted paddy rice plant
- assay_text: Biological Test 1 (treatment on the 3rd day after transplantation): chemical injury to paddy rice
- Assay type: in vivo
- Set-up: scale not given here
- test_parameters: Treatment performed 3 days after transplantation; dose 100 g/ha; examined on the 30th day after treatment
- Procedure: (1) Preparation of Herbicide Talc (57 parts by weight) and bentonite (40 parts by weight), both serving as carriers, and sodium alkylbenzenesulfate (3 parts by weight) serving as a surfactant were homogeneously ground and mixed to thereby obtain a carrier for water-dispersible powder. […] In Biological tests 1 and 2, herbicidal effect and extent of chemical injury were evaluated according to the below-described standards. […] Chemical injury to paddy rice was evaluated according to the following criteria.
result_type: Chemical injury, Transplanted paddy rice plant
Hey, just send me the number, nothing else.

Q: Return reported Chemical injury, Transplanted paddy rice plant. Input compound: "Cc1cc(C(=O)C2=C(O)CC(C)(C)CC2=O)c(Cl)c2c1S(=O)(=O)CC2"
Ans: 1

Q: Return reported Chemical injury, Transplanted paddy rice plant. Input compound: "Cc1cc(C(=O)C2=C(O)CCC(C)(C)C2=O)c(Cl)c2c1S(=O)(=O)CC2"
Ans: 1

Q: Return reported Chemical injury, Transplanted paddy rice plant. Input compound: CC1CCC(O)=C(C(=O)c2ccc3c(c2Cl)CCS3(=O)=O)C1=O (stereo not shown)
Ans: 1

Q: Return reported Chemical injury, Transplanted paddy rice plant. Input compound: "CC1(C)CC(=O)C(C(=O)c2ccc3c(c2Cl)CCS3(=O)=O)=C(O)C1"
Ans: 1

Q: Return reported Chemical injury, Transplanted paddy rice plant. Input compound: "O=C1CCCC(O)=C1C(=O)c1ccc2c(c1Cl)CCS2(=O)=O"
Ans: 0

Q: Return reported Chemical injury, Transplanted paddy rice plant. Input compound: CC1Cc2c(ccc(C(=O)C3=C(O)CCCC3=O)c2Cl)S1(=O)=O (stereo not shown)
Ans: 0

Q: Return reported Chemical injury, Transplanted paddy rice plant. Input compound: CC1CC(O)=C(C(=O)c2ccc3c(c2Cl)CCS3(=O)=O)C(=O)C1C (stereo not shown)
Ans: 1

Q: Return reported Chemical injury, Transplanted paddy rice plant. Input compound: O=C1CCCC(O)=C1C(=O)c1cc2c(cc1[N+](=O)[O-])OCO2 [Comparative Example I-1, reference compound]
Ans: 3

Q: Return reported Chemical injury, Transplanted paddy rice plant. Input compound: CC1CC(=O)C(C(=O)c2ccc3c(c2Cl)CCS3(=O)=O)=C(O)C1 (stereo not shown)
Ans: 1

Q: Return reported Chemical injury, Transplanted paddy rice plant. Input compound: "Cc1c(C(=O)C2=C(O)CCCC2=O)ccc2c1CCS2(=O)=O"
Ans: 0

Q: Return reported Chemical injury, Transplanted paddy rice plant. Input compound: "N#Cc1c(C(=O)C2C(=O)CCCC2=O)ccc2c1CCS2(=O)=O"
Ans: 0

Q: Return reported Chemical injury, Transplanted paddy rice plant. Input compound: Cc1cc(C(=O)C2=C(O)CCCC2=O)c(C)c2c1S(=O)(=O)CC2C (stereo not shown) [Comparative Example I-3, reference compound]
Ans: 3

Q: Return reported Chemical injury, Transplanted paddy rice plant. Input compound: "O=C1CCCC([O-])=C1C(=O)c1ccc2c(c1Cl)CCS2(=O)=O.[Na+]"
Ans: 0

Q: Return reported Chemical injury, Transplanted paddy rice plant. Input compound: "Cc1cc(C(=O)C2=C(O)CCCC2=O)c(C)c2c1S(=O)(=O)CC2"
Ans: 0

Q: Return reported Chemical injury, Transplanted paddy rice plant. Input compound: "Cc1cc(C(=O)C2=C(O)CCCC2=O)c(Cl)c2c1S(=O)(=O)CC2"
Ans: 1

Q: Return reported Chemical injury, Transplanted paddy rice plant. Input compound: O=C1CCCC(O)=C1C(=O)c1cccc2c1OCCO2 [Comparative Example I-2, reference compound]
Ans: 0

Q: Return reported Chemical injury, Transplanted paddy rice plant. Input compound: "CC1(C)CC(C)(C)C(=O)C(C(=O)c2ccc3c(c2Cl)CCS3(=O)=O)C1=O"
Ans: 1

Q: Return reported Chemical injury, Transplanted paddy rice plant. Input compound: "CSc1c(C(=O)C2=C(O)CCCC2=O)ccc2c1CCS2(=O)=O"
Ans: 1

Q: Return reported Chemical injury, Transplanted paddy rice plant. Input compound: CC1CC(C)C(O)=C(C(=O)c2ccc3c(c2Cl)CCS3(=O)=O)C1=O (stereo not shown)
Ans: 1

Q: Return reported Chemical injury, Transplanted paddy rice plant. Input compound: Cc1cc(C(=O)C2=C(O)CCCC2=O)c(C)c2c1S(=O)(=O)C(C)C2 (stereo not shown) [Comparative Example I-4, reference compound]
Ans: 2

Q: Return reported Chemical injury, Transplanted paddy rice plant. Input compound: "COc1c(C(=O)C2=C(O)CCCC2=O)ccc2c1CCS2(=O)=O"
Ans: 0

Q: Return reported Chemical injury, Transplanted paddy rice plant. Input compound: CC1CC(C)(C)C(=O)C(C(=O)c2ccc3c(c2Cl)CCS3(=O)=O)=C1O (stereo not shown)
Ans: 1

Q: Return reported Chemical injury, Transplanted paddy rice plant. Input compound: "CC1(C)CCC(O)=C(C(=O)c2ccc3c(c2Cl)CCS3(=O)=O)C1=O"
Ans: 1

Q: Return reported Chemical injury, Transplanted paddy rice plant. Input compound: COc1c(C(=O)C2=C(O)CCCC2=O)ccc2c1CC(C)S2(=O)=O (stereo not shown)
Ans: 0

Q: Return reported Chemical injury, Transplanted paddy rice plant. Input compound: "O=C1CCCC(=O)C1C(=O)c1ccc2c(c1Br)CCS2(=O)=O"
Ans: 0
